Biological target: rhMAO-B (Homo sapiens (Human), UniProt P27338)
Sequence (P27338 whole entry): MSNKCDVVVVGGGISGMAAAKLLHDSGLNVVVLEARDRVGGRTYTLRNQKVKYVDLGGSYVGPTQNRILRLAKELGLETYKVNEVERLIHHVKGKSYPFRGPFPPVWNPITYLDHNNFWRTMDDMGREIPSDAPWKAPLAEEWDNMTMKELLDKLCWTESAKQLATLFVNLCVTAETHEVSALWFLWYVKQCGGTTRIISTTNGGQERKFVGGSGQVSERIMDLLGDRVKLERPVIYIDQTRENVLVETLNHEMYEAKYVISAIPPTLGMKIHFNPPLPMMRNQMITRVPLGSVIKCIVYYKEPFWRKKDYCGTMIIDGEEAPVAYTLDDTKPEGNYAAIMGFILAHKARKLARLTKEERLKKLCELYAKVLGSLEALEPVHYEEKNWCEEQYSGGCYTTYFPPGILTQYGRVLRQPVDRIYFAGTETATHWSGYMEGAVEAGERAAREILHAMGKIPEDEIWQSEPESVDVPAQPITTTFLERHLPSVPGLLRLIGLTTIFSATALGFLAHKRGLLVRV
Test: MAO-B inhibition assay (modified Promega MAO-Glo)
Assay type: biochemical
Conditions: rhMAO-B, substrate 1 μM, 1 hour at room temperature; read-out: MAO B IC50
pIC50: −log10 of the molar value.
measure: pIC50

[
  {
    "compound": "CC1CCN(c2nc3ccc(OC/C(=C\\F)CN)cc3o2)C1 (centres unmarked) [Example 42, 4-methylbenzenesulfonate]",
    "pIC50": "5.00 to 6.00"
  }
]

Now turn to the next compound.
## Task Query (compound): CC1CCN(c2nc3ccc(OC/C(=C/F)CN)cc3o2)C1 (centres unmarked) [Example 30, 4-methylbenzenesulfonate] ; field requested: pIC50
## Result 6.00 to 7.00

---

Target: rhMAO-B (Homo sapiens (Human))
Test: MAO-B inhibition assay (modified Promega MAO-Glo)
Assay type: biochemical
pIC50: −log10 of the molar value.
measure: pIC50

## Task What measured pIC50 goes with CCCCn1nc2ccc(OC/C(=C\F)CN)cc2n1 [Example 66, 4-methylbenzenesulfonate] ?
## Result 6.00 to 7.00

---

The reader will find IC50 measurements below, all made with rhMAO-A (Homo sapiens (Human)).
Sequence (P21397 whole entry): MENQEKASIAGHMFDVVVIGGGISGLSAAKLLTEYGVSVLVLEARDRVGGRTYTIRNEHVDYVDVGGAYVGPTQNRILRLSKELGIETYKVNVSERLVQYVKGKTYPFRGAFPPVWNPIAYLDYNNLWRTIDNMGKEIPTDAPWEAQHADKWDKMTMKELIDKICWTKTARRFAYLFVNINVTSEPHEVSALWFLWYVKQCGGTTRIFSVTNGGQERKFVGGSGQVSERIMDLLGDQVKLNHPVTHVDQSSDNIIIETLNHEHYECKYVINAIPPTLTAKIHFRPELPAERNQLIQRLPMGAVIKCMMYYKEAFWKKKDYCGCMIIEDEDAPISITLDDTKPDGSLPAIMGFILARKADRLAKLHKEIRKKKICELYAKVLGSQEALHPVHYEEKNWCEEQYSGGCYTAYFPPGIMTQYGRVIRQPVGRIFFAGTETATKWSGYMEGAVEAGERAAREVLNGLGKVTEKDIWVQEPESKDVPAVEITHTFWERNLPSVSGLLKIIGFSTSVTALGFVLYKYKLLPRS

Example cases with answers are listed next.
[
  {
    "compound": "CCCCn1nc2ccc(OC/C(=C\\F)CN)cc2n1 [Example 66, 4-methylbenzenesulfonate]",
    "target-desc": "rhMAO-A (Homo sapiens (Human))",
    "IC50": "1 to 10 µM"
  },
  {
    "compound": "CC1CCN(c2nc3ccc(OC/C(=C\\F)CN)cc3o2)C1 (stereo not drawn) [Example 42, 4-methylbenzenesulfonate]",
    "target-desc": "rhMAO-A (Homo sapiens (Human))",
    "IC50": "1 to 10 µM"
  }
]

## Task Return IC50 measured with rhMAO-A (Homo sapiens (Human)) given this compound: CC1CCN(c2nc3ccc(OC/C(=C/F)CN)cc3o2)C1 (stereo not drawn) [Example 30, 4-methylbenzenesulfonate]
## Result 10 to 30 µM
